system: SW480; assay: cell viability (CellTiter-Glo) relative to plate median (fraction of plate median); higher = more viable cells; conditions: 5 µM; treatment time 24 h; reporter: 7TFP
Provide the recorded cell viability for the entries that follow.
Numbers only.

These solved cases illustrate the format of a correct answer.
Compound	Reported Endpoint	Readout Value
CC1=CCCC2C1(C)CCC(C)C2(C)CC/C(C)=C/Cn1c[n+](C)c2c(N)ncnc21 (stereo not given) [AGELASINE (stereochemistry of diterpene unknown)]	cell viability	0.94
O=P1(N(CCCl)CCCl)NCCCO1 (stereo not given)	cell viability	0.959
CCC1(CC)C(=O)C=CNC1=O	cell viability	0.926
C[C@H]1O[C@H](O[C@H]2[C@H](O)[C@@H](O)[C@@H](O)[C@H](O)[C@@H]2O)[C@@H](N)C[C@@H]1NC(=N)C(=O)O	cell viability	1.03

Here is another compound to look at.
Look up and state reported cell viability for NCCCNCCSP(=O)(O)O
1.06
